MEASURED ON: T1, human c-Kit expressed on NOMO-1 cells (human, UniProt P10721 26-976)
T1 construct: Endogenous c-Kit of the NOMO-1 AML cell line
EXPERIMENT: flow cytometry, antibody supernatant on NOMO-1 cells expressing c-Kit, PE secondary
Each entry gets 0.0 if its fold over background MFI signal stays under 40 fold over background, and 1.0 if its fold over background MFI signal is 40 fold over background or above.

Example results:
# BINDER, LABEL CLASS
measured = [
    ("anti-c-Kit single domain antibody Clone ID # 407922 (VHH, also called F06 family) VHH: EVQLLESGGGLVQPGGSLRLSCAASGLTISSYAMSWVRQAPGKGLEWVSAISTGGSRTYYADSVKGRFTISRDNSKNTLYLQMNSLRAEDTAVYFCATGYDSSGHYYGGFDYRGQGTLVTVSS", 0.0),
    ("anti-c-Kit single domain antibody Clone ID # 408389 (VHH, also called F06 family) VHH: EVQLLESGGGLVQPGGSLRLSCAASGFTFDSYAMSWVRQAPGEGLEWVSAISTGGGSTYYADSVKGRFTISRDNSKNMLFLQMNSLRAEDTAVYSCATGYDSSGYYYGGFDYRGQGTLVTVSS", 1.0),
]

Req: hey, is fold over background MFI signal for this one >= 40 fold over background? anti-c-Kit single domain antibody Clone ID # 408198 (VHH, also called F18 family) VHH: QLQLQESGPGLVKPSETLSLTCTVSGGSISSSSYYWGWIRQPPGKGLEWIGSIDYNGGTYNNPSLKSRVTISVDTSKNQFSLKLSYVTAADTAVYYCARQNPRRYASGASDYRGQGTLVTVSS
Resp: 1.0

Req: Input anti-c-Kit single domain antibody Clone ID # 408366 (VHH, also called F06 family) VHH: EVQLLESGGGLVQPGGSLRLSCAASGLTISTYAMSWVRQAPGKGLEWVSAISTGGSSTYYADSVKGRFTISRDNSKNTLYLQMNSLRAEDTAVYYCATGYDSSGHYYGGFDYRGQGTLVTVSS
Resp: 1.0

Req: Now the binder anti-c-Kit single domain antibody Clone ID # 407921 (VHH, also called F06 family) VHH: EVQLLESGGGLVQPGGSLRLSCAASGFTFDSYAMSWVRQAPGKGLEWVSAISVRGGSTYYADSVKGRFTISRDNSKNTLYLQMNSLRAEDTAVYSCATGYDPSGHYYGGFDYRGQGTLVTVSS
Resp: 0.0
